Across several publications, the following IC50 results were reported for Mast/stem cell growth factor receptor Kit (Homo sapiens, UniProt P10721).
MEASUREMENT NAME: IC50 (nM)

INSERT INTO measurements (compound, readout_number) VALUES
  ('Cc1ccc(Nc2nccc(N(C)c3ccc4[nH]ccc4c3)n2)cc1S(N)(=O)=O', 108),
  ('Cc1ccc(NC(=O)c2ccc(CN3CCCC(N(C)C)C3)c(C(F)(F)F)c2)cc1-c1cnc2sc(N)nc2c1 (centres unmarked)', 390),
  ('Cc1ccc(NC(=O)c2ccc(CN3CCN(C)CC3)cc2)cc1Oc1nccc(-c2cc3ccccc3o2)n1', 510),
  ('CC(=O)Nc1nc2cc(-c3cc(NC(=O)c4ccc(CN(C)CCN(C)C)c(C(F)(F)F)c4)ccc3C)cnc2s1', 100),
  ('Cc1ccc(NC(=O)c2ccc(CN3CCN(CCO)CC3)c(C(F)(F)F)c2)cc1-c1cnc2sc(N)nc2c1', 1250),
  ('CC(=O)N1CCN(Cc2ccc(C(=O)Nc3ccc(C)c(-c4cnc5sc(N)nc5c4)c3)cc2C(F)(F)F)CC1', 4560),
  ('Cc1ccc(NC(=O)c2ccc(CN3CCNCC3)c(C(F)(F)F)c2)cc1-c1cnc2sc(N)nc2c1', 370),
  ('CC(=O)Nc1nc2cc(-c3cc(NC(=O)c4ccc(CN5CCOCC5)c(C(F)(F)F)c4)ccc3C)cnc2s1', 3630),
  ('C[C@@H]1NC(=O)c2c1c1c3ccccc3n(CCCCN)c1c1[nH]c3ccccc3c21', 6550),
  ('CC(=O)Nc1nc2cc(-c3cc(NC(=O)c4ccc(CN5CCCC(N(C)C)C5)c(C(F)(F)F)c4)ccc3C)cnc2s1 (centres unmarked)', 180),
  ('Cc1ccc(NC(=O)c2ccc(CN3CCOCC3)c(C(F)(F)F)c2)cc1-c1cnc2sc(N)nc2c1', 5720),
  ('Cc1cc(Nc2ncc(Cl)s2)nc(CC2CCN(C(=O)c3cccc(Cl)c3F)CC2)n1', 17000),
  ('Cc1ccc(NC(=O)c2ccc(CN(C)CCN(C)C)c(C(F)(F)F)c2)cc1-c1cnc2sc(N)nc2c1', 250),
  ('CC(NC(=O)c1cccc(C(=O)NC(C)C(=O)N/N=C2/C(=O)Nc3ccccc32)c1)C(=O)N/N=C1\C(=O)Nc2ccccc21 (centres unmarked)', 2850),
  ('Cc1ccc(NC(=O)c2cccc(C(F)(F)F)c2)cc1-c1cnc2sc(N)nc2c1', 9870),
  ('Cc1ccc(NC(=O)c2ccc(CN3CCN(C)CC3)c(C(F)(F)F)c2)cc1-c1cnc2sc(NC(=O)c3ccccc3)nc2c1', 740),
  ('CC1NC(=O)c2c1c1c3ccccc3n(CCCN)c1c1[nH]c3ccccc3c21 (centres unmarked)', 1020);
